# Tested on: fixed activated platelets
# PROTOCOL TEXT: Platelet Aggregation Assay (inhibition of fibrinogen-mediated aggregation of fixed-activated platelets)
# Type: cell-based
# ASSAY SETUP: human fibrinogen 250 μg/ml, fixed thrombin-activated human platelets
MEASURED ATTRIBUTE: IC50 (nM)

COMPOUND	MEASUREMENT TARGET	RECORDED RESULT
N=C(N)NCCCCCCC(=O)NC(CC(=O)O)NC(=O)CCCCCCNC(=N)N (centres unmarked)	fixed activated platelets	2800
N=C(N)NCCCCCCCCC(=O)N[C@@H](CC(=O)O)NC(=O)CCCCCCNC(=N)N	fixed activated platelets	120
CC[C@@H](C)[C@@H](NC(=O)CCCCNC(=N)N)C(=O)N[C@H](CC(=O)O)NC(=O)CCCCCCCCNC(=N)N	fixed activated platelets	25000
N=C(N)NCCCCCCCC(=O)N[C@@H](CC(=O)O)NC(=O)CCCCCCNC(=N)N	fixed activated platelets	320
N=C(N)NCCCCCCCC(=O)N[C@H](CC(=O)O)NC(=O)CCCCCCNC(=N)N	fixed activated platelets	740

1 = N=C(N)NCCCCCCCCC(=O)N[C@H](CC(=O)O)NC(=O)CCCCCCNC(=N)N
2 = N=C(N)NCCCCCCCCC(=O)N[C@@H](CC(=O)O)NC(=O)CCCCCCCNC(=N)N
Incoming: // task: argmin of IC50 over [ 1 , 2 ] Answer by stating the label of the chosen item.
Outgoing: 2
(2: 300 nM, 1: 2800 nM)

a = CC(C)CC(=O)N[C@H](CC(=O)O)NC(=O)CCCCCCCNC(=N)N
b = CC[C@H](C)[C@H](NC(=O)CCCCNC(=N)N)C(=O)N[C@H](CC(=O)O)NC(=O)CCCCCCCCNC(=N)N
c = N=C(N)NCCCCCCCC(=O)N[C@H](CC(=O)O)NC(=O)[C@@H](N)CCCNC(=N)N
d = N=C(N)NCCCCCCCCC(=O)N[C@H](CC(=O)O)NC(=O)CCCCCCCNC(=N)N
Incoming: Ascending by IC50, please: list the compounds accordingly. To answer, write out the labels according to the requested order.
Outgoing: d, a, c, b
(d: 1300 nM, a: 2000 nM, c: 9800 nM, b: 17500 nM)

====

# Test system: fixed activated platelets
# PROTOCOL TEXT: Platelet Aggregation Assay (inhibition of fibrinogen-mediated aggregation of fixed-activated platelets)
# Assay type: cell-based
# ASSAY SETUP: human fibrinogen 250 μg/ml, fixed thrombin-activated human platelets
MEASURED ATTRIBUTE: IC50 (µM)

COMPOUND	UNIT SYMBOL	RECORDED RESULT
N=C(N)NCCCCCCCCC(=O)NC(CC(=O)O)NC(=O)CCCCCCCCNC(=N)N (stereo not drawn)	µM	0.14
N=C(N)NCCCCCCCC(=O)NC(CC(=O)O)NC(=O)CCCCCCCNC(=N)N (stereo not drawn)	µM	0.12
